- targetEntity: CYP1A2 (Rattus norvegicus)
- Sequence (P04799 whole entry): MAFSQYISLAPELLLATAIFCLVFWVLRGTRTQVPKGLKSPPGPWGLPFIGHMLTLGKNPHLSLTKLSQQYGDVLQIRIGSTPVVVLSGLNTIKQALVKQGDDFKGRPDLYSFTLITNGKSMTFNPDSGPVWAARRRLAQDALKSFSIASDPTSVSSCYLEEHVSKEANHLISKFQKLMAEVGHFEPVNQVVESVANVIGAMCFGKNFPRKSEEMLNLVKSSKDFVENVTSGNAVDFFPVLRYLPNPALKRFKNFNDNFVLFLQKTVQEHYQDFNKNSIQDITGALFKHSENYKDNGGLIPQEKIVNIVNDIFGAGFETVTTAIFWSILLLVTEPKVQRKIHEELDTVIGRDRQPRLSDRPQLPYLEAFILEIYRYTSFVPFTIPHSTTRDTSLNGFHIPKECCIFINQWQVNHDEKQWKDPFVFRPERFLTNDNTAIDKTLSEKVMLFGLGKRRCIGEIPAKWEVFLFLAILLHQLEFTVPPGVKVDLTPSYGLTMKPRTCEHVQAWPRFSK
- protocolDetails: In vitro cocktail CYP450 activity assay in rat liver microsomes, CYP1A2 (phenacetin probe)
- appliedConditions: microsomes
pIC50: −log10 of the molar value.
recordedMetric: pIC50

Consider the reported pIC50 for these compounds:
C[C@@H]1OC(OC[C@H]2OC(Oc3c(-c4ccc(O)cc4)oc4cc(O)c(OC5O[C@H](CO)[C@@H](O)[C@H](O)[C@H]5O)c(O)c4c3=O)[C@H](O)[C@@H](O)[C@@H]2O)[C@H](O)[C@H](O)[C@H]1O (stereo partly drawn)    < 3.70
O=C(/C=C/c1ccc(O)cc1)C1=C(O)C2=C(O[C@H]([C@@H](O)[C@H](O)[C@H](O)CO)[C@H]2C2=C(O)/C(=C(O)/C=C/c3ccc(O)cc3)C(=O)C(O)([C@@H]3O[C@H](CO)[C@@H](O)[C@H](O)[C@H]3O)C2=O)C(O)([C@@H]2O[C@H](CO)[C@@H](O)[C@H](O)[C@H]2O)C1=O (stereo partly drawn) [A8, anhydroxysafflor yellow B]    < 3.70

With CYP1A2 (Rattus norvegicus) as the test system, O=c1c(OC2O[C@H](CO)[C@@H](O)[C@H](O)[C@H]2O)c(-c2ccc(O)cc2)oc2cc(OC3O[C@H](CO)[C@@H](O)[C@H](O)[C@H]3O)c(OC3O[C@H](CO)[C@@H](O)[C@H](O)[C@H]3O)c(O)c12 (stereo partly drawn) showed pIC50 of < 3.70
